# Study system: IKKε (Homo sapiens (Human))
# Sequence (Q14164 whole entry): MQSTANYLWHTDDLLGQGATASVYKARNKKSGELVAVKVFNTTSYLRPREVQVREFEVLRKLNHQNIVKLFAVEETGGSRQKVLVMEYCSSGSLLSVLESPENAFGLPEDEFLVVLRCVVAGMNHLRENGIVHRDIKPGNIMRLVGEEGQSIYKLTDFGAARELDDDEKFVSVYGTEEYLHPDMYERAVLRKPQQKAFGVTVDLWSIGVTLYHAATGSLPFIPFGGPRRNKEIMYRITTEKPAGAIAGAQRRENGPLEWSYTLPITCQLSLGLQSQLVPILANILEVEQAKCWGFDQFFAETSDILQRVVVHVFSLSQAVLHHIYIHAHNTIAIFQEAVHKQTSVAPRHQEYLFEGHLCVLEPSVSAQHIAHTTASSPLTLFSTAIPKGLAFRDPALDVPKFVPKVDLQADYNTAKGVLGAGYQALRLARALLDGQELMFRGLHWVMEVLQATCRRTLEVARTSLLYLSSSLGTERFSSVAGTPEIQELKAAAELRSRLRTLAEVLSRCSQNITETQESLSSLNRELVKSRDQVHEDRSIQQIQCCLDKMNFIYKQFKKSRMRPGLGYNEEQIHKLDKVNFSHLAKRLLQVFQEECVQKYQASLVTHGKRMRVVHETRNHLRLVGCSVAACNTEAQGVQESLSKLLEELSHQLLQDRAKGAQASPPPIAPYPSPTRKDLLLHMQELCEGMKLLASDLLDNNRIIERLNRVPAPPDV
# Experimental protocol: IKKε time-resolved fluorescence Lanthascreen kinase inhibition assay
# Type: biochemical
# Assay context: at the Km for ATP; read-out: Concentration of compounds required for ~ 50% inhibition, IKK-ε
Observable: IC50 (nM)
State the answer as a number, implicitly in nM.

Data request: Please look up its IC50: N#Cc1cc(-c2ccnc(Nc3ccc4c(c3)CC(=O)N4)n2)ccc1N1CCCC1 [DMX-14]
Data returned: 3

Data request: Cool, now N#Cc1cc(-c2ccnc(Nc3cccc(C(N)=O)c3)n2)ccc1N1CCCC1 [DMX-1]
Data returned: 2

Data request: Also CN(C)CCNc1ccc(Nc2nccc(-c3ccc(N4CC[C@H](F)C4)c(C#N)c3)n2)cn1 [DMX-69] ?
Data returned: 4

Data request: Next: Cn1cc(Nc2nccc(-c3ccc(N4CCCC4)c(C#N)c3)n2)cn1 [DMX-56]
Data returned: 8

Data request: Another compound to look at: N#Cc1cc(-c2ccnc(Nc3ccc(N4CCOCC4)nc3)n2)ccc1N1CCCC1 [DMX-16]
Data returned: 2

Data request: Now try CC(=O)Nc1ccc(Nc2nccc(-c3ccc(N4CCCC4)c(C#N)c3)n2)cc1 [DMX-9] .
Data returned: 3

Data request: Param item: N#Cc1cc(-c2ccnc(Nc3ccc(C(N)=O)cc3)n2)ccc1N1CCCC1 [DMX-8]
Data returned: 3

Data request: Same question, CC(=O)Nc1ccc(Nc2nccc(-c3ccc(N4CC(O)C4)c(C#N)c3)n2)cn1 [DMX-66] this time
Data returned: 21

Where these numbers come from: patent US8962609B2
